Each entry below carries its reported MIC.
Test system: Aspergillus flavus
test_details: Antifungal activity against Aspergillus flavus assessed as inhibition of fungal growth incubated for 72 hrs by agar dilution method
Format: functional
parameter: MIC (µg/mL)

>>> test_result("CCc1ccc(-c2csc(NC(=S)N[C@@H]3O[C@H](COC(C)=O)[C@@H](OC(C)=O)[C@H](OC(C)=O)[C@H]3OC(C)=O)n2)cc1")
200
>>> test_result("COc1ccc(-c2csc(NC(=S)N[C@@H]3O[C@H](COC(C)=O)[C@@H](OC(C)=O)[C@H](OC(C)=O)[C@H]3OC(C)=O)n2)cc1[N+](=O)[O-]")
1.56
>>> test_result("Clc1ccc(COC(Cn2ccnc2)c2ccc(Cl)cc2Cl)c(Cl)c1 (stereo not drawn)")
1.56

----------
Here, each record is paired with measured MIC data.
Test system: Candida albicans
test_details: Antifungal activity against Candida albicans assessed as inhibition of fungal growth incubated for 72 hrs by agar dilution method
Format: functional
parameter: MIC (µg/mL)

>>> test_result("CCc1ccc(-c2csc(NC(=S)N[C@@H]3O[C@H](COC(C)=O)[C@@H](OC(C)=O)[C@H](OC(C)=O)[C@H]3OC(C)=O)n2)cc1")
6.25
>>> test_result("CC(=O)OC[C@H]1O[C@@H](NC(=S)Nc2nc(-c3cccc([N+](=O)[O-])c3)cs2)[C@H](OC(C)=O)[C@@H](OC(C)=O)[C@@H]1OC(C)=O")
100
>>> test_result("COc1ccc(-c2csc(NC(=S)N[C@@H]3O[C@H](COC(C)=O)[C@@H](OC(C)=O)[C@H](OC(C)=O)[C@H]3OC(C)=O)n2)cc1")
0.78

----------
Quick reference for MIC among some compounds
System: Pseudomonas aeruginosa
test_details: Antibacterial activity against Pseudomonas aeruginosa assessed as inhibition of visible bacterial growth incubated for 18 to 20 hrs by microbroth dilution method
Format: functional
condition_info: time 18-20 hrs
parameter: MIC (µg/mL)

>>> test_result("CC(=O)OC[C@H]1O[C@@H](NC(=S)Nc2nc(-c3ccc(Cl)cc3)cs2)[C@H](OC(C)=O)[C@@H](OC(C)=O)[C@@H]1OC(C)=O")
200
>>> test_result("COc1ccc(-c2csc(NC(=S)N[C@@H]3O[C@H](COC(C)=O)[C@@H](OC(C)=O)[C@H](OC(C)=O)[C@H]3OC(C)=O)n2)cc1[N+](=O)[O-]")
0.78
>>> test_result("CC(=O)OC[C@H]1O[C@@H](NC(=S)Nc2nc(-c3ccccc3)cs2)[C@H](OC(C)=O)[C@@H](OC(C)=O)[C@@H]1OC(C)=O")
6.25
>>> test_result("CC(=O)OC[C@H]1O[C@@H](NC(=S)Nc2nc(-c3cccc([N+](=O)[O-])c3)cs2)[C@H](OC(C)=O)[C@@H](OC(C)=O)[C@@H]1OC(C)=O")
3.12
>>> test_result("COc1ccc(-c2csc(NC(=S)N[C@@H]3O[C@H](COC(C)=O)[C@@H](OC(C)=O)[C@H](OC(C)=O)[C@H]3OC(C)=O)n2)cc1")
12.5
>>> test_result("O=C(O)c1cn(C2CC2)c2cc(N3CCNCC3)c(F)cc2c1=O")
1.56
>>> test_result("CCc1ccc(-c2csc(NC(=S)N[C@@H]3O[C@H](COC(C)=O)[C@@H](OC(C)=O)[C@H](OC(C)=O)[C@H]3OC(C)=O)n2)cc1")
25
>>> test_result("CC(=O)OC[C@H]1O[C@@H](NC(=S)Nc2nc(-c3ccc(C)cc3)cs2)[C@H](OC(C)=O)[C@@H](OC(C)=O)[C@@H]1OC(C)=O")
50
>>> test_result("CC(=O)OC[C@H]1O[C@@H](NC(=S)Nc2nc(-c3ccc(Br)cc3)cs2)[C@H](OC(C)=O)[C@@H](OC(C)=O)[C@@H]1OC(C)=O")
100

----------
Test system: Staphylococcus epidermidis
test_details: Antibacterial activity against Staphylococcus epidermidis assessed as inhibition of visible bacterial growth incubated for 18 to 20 hrs by microbroth dilution method
Type: functional
condition_info: time 18-20 hrs
// reported MIC per item
parameter: MIC (µg/mL)

>>> test_result("O=C(O)c1cn(C2CC2)c2cc(N3CCNCC3)c(F)cc2c1=O")
3.12
>>> test_result("CC(=O)OC[C@H]1O[C@@H](NC(=S)Nc2nc(-c3ccc(Cl)cc3)cs2)[C@H](OC(C)=O)[C@@H](OC(C)=O)[C@@H]1OC(C)=O")
3.12
>>> test_result("CC(=O)OC[C@H]1O[C@@H](NC(=S)Nc2nc(-c3cccc([N+](=O)[O-])c3)cs2)[C@H](OC(C)=O)[C@@H](OC(C)=O)[C@@H]1OC(C)=O")
12.5
>>> test_result("CC(=O)OC[C@H]1O[C@@H](NC(=S)Nc2nc(-c3ccc(Br)cc3)cs2)[C@H](OC(C)=O)[C@@H](OC(C)=O)[C@@H]1OC(C)=O")
25

----------
Attribute: MIC
System: Staphylococcus aureus
test_details: Antibacterial activity against Staphylococcus aureus assessed as inhibition of visible bacterial growth incubated for 18 to 20 hrs by microbroth dilution method
Type: functional
condition_info: time 18-20 hrs
parameter: MIC (µg/mL)

>>> test_result("CC(=O)OC[C@H]1O[C@@H](NC(=S)Nc2nc(-c3cccc([N+](=O)[O-])c3)cs2)[C@H](OC(C)=O)[C@@H](OC(C)=O)[C@@H]1OC(C)=O")
6.25
>>> test_result("COc1ccc(-c2csc(NC(=S)N[C@@H]3O[C@H](COC(C)=O)[C@@H](OC(C)=O)[C@H](OC(C)=O)[C@H]3OC(C)=O)n2)cc1[N+](=O)[O-]")
0.78
>>> test_result("CC(=O)OC[C@H]1O[C@@H](NC(=S)Nc2nc(-c3ccccc3)cs2)[C@H](OC(C)=O)[C@@H](OC(C)=O)[C@@H]1OC(C)=O")
200
>>> test_result("O=C(O)c1cn(C2CC2)c2cc(N3CCNCC3)c(F)cc2c1=O [CIPROFLOXACIN]")
3.12
>>> test_result("CC(=O)OC[C@H]1O[C@@H](NC(=S)Nc2nc(-c3ccc(Br)cc3)cs2)[C@H](OC(C)=O)[C@@H](OC(C)=O)[C@@H]1OC(C)=O")
12.5
>>> test_result("CC(=O)OC[C@H]1O[C@@H](NC(=S)Nc2nc(-c3ccc(Cl)cc3)cs2)[C@H](OC(C)=O)[C@@H](OC(C)=O)[C@@H]1OC(C)=O")
3.12
>>> test_result("CCc1ccc(-c2csc(NC(=S)N[C@@H]3O[C@H](COC(C)=O)[C@@H](OC(C)=O)[C@H](OC(C)=O)[C@H]3OC(C)=O)n2)cc1")
400
>>> test_result("COc1ccc(-c2csc(NC(=S)N[C@@H]3O[C@H](COC(C)=O)[C@@H](OC(C)=O)[C@H](OC(C)=O)[C@H]3OC(C)=O)n2)cc1")
1.56
>>> test_result("CC(=O)OC[C@H]1O[C@@H](NC(=S)Nc2nc(-c3ccc(C)cc3)cs2)[C@H](OC(C)=O)[C@@H](OC(C)=O)[C@@H]1OC(C)=O")
25
>>> test_result("CN[C@H](CC(C)C)C(=O)N[C@H]1C(=O)N[C@@H](CC(N)=O)C(=O)N[C@H]2C(=O)N[C@H]3C(=O)N[C@H](C(=O)N[C@H](C(=O)O)c4cc(O)cc(O)c4-c4cc3ccc4O)[C@H](O)c3ccc(c(Cl)c3)Oc3cc2cc(c3O[C@@H]2O[C@H](CO)[C@@H](O)[C@H](O)[C@H]2O[C@H]2C[C@](C)(N)[C@H](O)[C@H](C)O2)Oc2ccc(cc2Cl)[C@H]1O [VANCOMYCIN]")
1.56

----------
# MIC values compiled below
Tested on: Candida albicans
test_details: Antifungal activity against Candida albicans assessed as inhibition of fungal growth incubated for 72 hrs by agar dilution method
Format: functional
parameter: MIC (µg/mL)

>>> test_result("CC(=O)OC[C@H]1O[C@@H](NC(=S)Nc2nc(-c3ccc(Br)cc3)cs2)[C@H](OC(C)=O)[C@@H](OC(C)=O)[C@@H]1OC(C)=O")
50
>>> test_result("Clc1ccc(COC(Cn2ccnc2)c2ccc(Cl)cc2Cl)c(Cl)c1 (configuration not stated)")
3.12
>>> test_result("CC(=O)OC[C@H]1O[C@@H](NC(=S)Nc2nc(-c3ccc(C)cc3)cs2)[C@H](OC(C)=O)[C@@H](OC(C)=O)[C@@H]1OC(C)=O")
400
>>> test_result("CC(=O)OC[C@H]1O[C@@H](NC(=S)Nc2nc(-c3ccccc3)cs2)[C@H](OC(C)=O)[C@@H](OC(C)=O)[C@@H]1OC(C)=O")
3.12
>>> test_result("COc1ccc(-c2csc(NC(=S)N[C@@H]3O[C@H](COC(C)=O)[C@@H](OC(C)=O)[C@H](OC(C)=O)[C@H]3OC(C)=O)n2)cc1[N+](=O)[O-]")
12.5
>>> test_result("OC(Cn1cncn1)(Cn1cncn1)c1ccc(F)cc1F")
0.78
>>> test_result("CC(=O)OC[C@H]1O[C@@H](NC(=S)Nc2nc(-c3ccc(Cl)cc3)cs2)[C@H](OC(C)=O)[C@@H](OC(C)=O)[C@@H]1OC(C)=O")
25

Numbers sourced from ChEMBL document CHEMBL5329146.
